# System: HBV DNA replication in HepG2.2.15 cells
# protocol description: In vitro anti-HBV activity test (quantitative assay of intracellular HBV DNA), HepG2.2.15 cells, quantitative PCR
# Assay type: cell-based, hepatitis B virus (HBV)
# assay conditions: Hepatitis B virus, HBV DNA by quantitative PCR, read-out: Emax (effect value of the compound to maximally inhibit HBV DNA replication)
measurement label: Emax (%)
Output spec: scalar in %, unitless text.

1) C[C@H]1Cn2cnc(C(=O)NC3(C)CC3)c2CN1C(=O)Nc1ccc(F)c(C#N)c1 [Example 48] :: 98
2) Cc1cc(NC(=O)N2Cc3c(C(=O)N[C@H](C)C(F)(F)F)nnn3C[C@@H]2C)ccc1F [Example 40] :: 100
3) C[C@H]1Cn2ncc(C(=O)N[C@H](C)C(F)(F)F)c2CN1C(=O)Nc1ccc(F)c(F)c1 [Example 7] :: 100
4) C[C@@H](NC(=O)c1cnn2c1CN(C(=O)Nc1cc(F)c(F)c(F)c1)CC2)C(F)(F)F [Example 4] :: 100
5) C[C@H]1Cn2ncc(C(=O)N[C@H](C)C(F)(F)F)c2CN1C(=O)Nc1ccc(F)c(C#N)c1 [Example 15] :: 100
6) C[C@H]1Cn2ncc(C(=O)NC(C)(C)C)c2CN1C(=O)Nc1cc(F)c(F)c(F)c1 [Example 10] :: 100

The molecule listed as Cc1cc(NC(=O)N2Cc3c(C(=O)N[C@H](C)C(F)(F)F)ncn3C[C@@H]2C)ccc1F [Example 58] shows Emax equal to 100

What the record says about C[C@@H](NC(=O)c1cnn2c1CN(C(=O)Nc1ccc(F)c(F)c1)CC2)C(F)(F)F [Example 2] : Emax is 100

###

# protocol description: Pharmacokinetics assay in rats after intragastrical administration (LC/MS/MS of plasma)
# Assay type: in vivo
# assay conditions: both sexes, rat, plasma, po, SD rats, 2 mg/kg, read-out: Clearance CLz/F
Mark Satisfied only when CL/F stays strictly below 5 mL/min/kg. Values equal to the cut-off are Not satisfied.

Known results for compounds:
1) C[C@H]1Cn2cnc(C(=O)N[C@H](C)C(F)(F)F)c2CN1C(=O)Nc1ccc(F)c(C#N)c1 :: Satisfied
2) C[C@@H]1CN(C(=O)Nc2ccc(F)c(C#N)c2)Cc2c(C(=O)N[C@H](C)C(F)(F)F)ncn21 :: Not satisfied

Problem: Hi there! Is CL/F for C[C@@H]1CN(C(=O)Nc2ccc(F)c(F)c2)Cc2c(C(=O)N[C@H](C)C(F)(F)F)nnn21 below 5 mL/min/kg, do you know?
Solution: Not satisfied

Problem: I'd appreciate it if you could check whether C[C@H]1Cn2cnc(C(=O)N[C@H](C)C(F)(F)F)c2CN1C(=O)Nc1ccc(F)c(F)c1 has CL/F smaller than 5 mL/min/kg.
Solution: Satisfied

###

# System: HBV DNA replication in HepG2.2.15 cells
# protocol description: In vitro anti-HBV activity test (quantitative assay of intracellular HBV DNA), HepG2.2.15 cells, quantitative PCR
# Format: cell-based, hepatitis B virus (HBV)
# assay conditions: Hepatitis B virus, HBV DNA by quantitative PCR, compound treatment Day 2 to Day 8
Decision: EC50 beneath 0.02 µM gives TRUE; EC50 meeting or exceeding 0.02 µM gives FALSE.

1) C[C@@H](NC(=O)c1cnn2c1CN(C(=O)Nc1ccc(F)c(F)c1)CC2)C(F)(F)F [Example 2] :: FALSE
2) Cc1cc(NC(=O)N2Cc3c(C(=O)N[C@H](C)C(F)(F)F)ncn3C[C@@H]2C)ccc1F [Example 58] :: TRUE
3) C[C@H]1Cn2ncc(C(=O)N[C@H](C)C(F)(F)F)c2CN1C(=O)Nc1cc(F)nc(F)c1 [Example 16] :: FALSE

Attention now turns to another entry.
Problem: Input C[C@@H](NC(=O)c1cnn2c1CN(C(=O)Nc1cc(F)c(F)c(F)c1)CC2)C(F)(F)F [Example 4] ; condition: EC50 strictly below 0.02 µM. Does it hold?
Solution: FALSE
